Each recorded value in this set is attributed to paper PMC13266984.

Listing of recorded log10 AC50 by entry.
Molecular target: UniProt P30838
Sequence (P30838 1-453): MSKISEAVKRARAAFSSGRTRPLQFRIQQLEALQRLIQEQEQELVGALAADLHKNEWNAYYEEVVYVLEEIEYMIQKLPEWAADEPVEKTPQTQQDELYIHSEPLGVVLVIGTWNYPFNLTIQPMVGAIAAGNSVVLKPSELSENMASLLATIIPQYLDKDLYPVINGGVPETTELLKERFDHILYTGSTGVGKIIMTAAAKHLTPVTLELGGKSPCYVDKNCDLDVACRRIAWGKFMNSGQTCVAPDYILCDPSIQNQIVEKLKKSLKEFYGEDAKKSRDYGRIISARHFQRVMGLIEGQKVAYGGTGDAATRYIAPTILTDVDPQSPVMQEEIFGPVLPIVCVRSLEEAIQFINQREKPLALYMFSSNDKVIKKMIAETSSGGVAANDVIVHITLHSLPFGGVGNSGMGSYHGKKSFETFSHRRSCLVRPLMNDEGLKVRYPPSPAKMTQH
Assay: Cellular ALDEFLUOR assay in OE19 cells (preferential ALDH3A1 expression)
A difference of one corresponds to tenfold AC50; all values are log10 with AC50 in nM.

Input: Checklist item: log10 AC50 tested on UniProt P30838, entry COc1ccccc1N1CCN(c2nc(C(=O)NCc3cccc(C)c3)cs2)CC1 [NCGC01210996-01] , value?
Output: 1.70

Input: And then N#Cc1ccc(CNC(=O)c2csc(N3CCN(c4cccc(C(F)(F)F)c4)CC3)n2)cc1F [NCGC01397293-01] , what is it?
Output: 2.88

Input: And then O=C(NCc1ccc(C(F)F)c(F)c1)c1csc(N2CCN(c3cccc(C(F)(F)F)c3)CC2)n1 [NCGC01407984-01] , what is it?
Output: 2.38

Input: And then CCOC(=O)Cc1ccc(N2CCN(c3nc(C(=O)NCc4cccc(C)c4)cs3)CC2)cc1 [NCGC01212809-01] , what is it?
Output: 3.59

Input: And then O=C(NCc1ccc2cc(Cl)ccc2c1)c1csc(N2CCN(c3cccc(C(F)(F)F)c3)CC2)n1 [NCGC01407805-01] , what is it?
Output: 2.98

Input: And then CC(C)(O)c1ccc(CNC(=O)c2csc(N3CCN(c4cccc(C(F)(F)F)c4)CC3)n2)cc1 [NCGC01408044-01] , what is it?
Output: 1.05

Input: And then Cc1cccc(CNC(=O)c2csc(N3CCN(c4ccc(C5(C#N)CCCCC5)cc4)CC3)n2)c1 [NCGC01210611-01] , what is it?
Output: 2.79
